MEASUREMENT_LABEL: melting point

compound=COc1ccc(C(=O)Nc2c(Cl)cncc2Cl)c2c1OCCO2 observed="143 to 145 °C"
compound=COc1ccc(C(=O)Nc2c(Cl)cncc2Cl)c2c1OC1(CCCC1)O2 observed="168 to 170 °C"
compound=COc1ccc(C(=O)Cc2c(Cl)cncc2Cl)c2c(CC(=O)OCCc3ccccc3)coc12 observed="183 to 184 °C"
compound=COc1ccc(C(=O)Cc2c(Cl)cncc2Cl)c2c1OC(c1ccccc1)(c1ccccc1)O2 observed="156 to 157 °C"
compound=COc1ccc(C(=O)Nc2c(Cl)cccc2Cl)c2c1OCCO2 observed="176 to 177 °C"

Batch of 5 compounds: report melting point for each.
1. COc1ccc(C(=O)Cc2c(Cl)cncc2Cl)c2c(CC(=O)O)coc12
2. COc1ccc(C(=O)Cc2c(Cl)cncc2Cl)c2c1OCCO2
3. COc1ccc(-c2cccc(C(=O)O)c2)c2c1OC(C)(C)C2
4. COc1ccc(C(=O)Nc2c(Cl)cncc2Cl)c2c1OCC2CC(=O)Nc1ccccc1 (racemic)
5. COc1ccc(C(=O)Cc2c(Cl)cncc2Cl)c2c1OCC2C (racemic)

Output:
192 to 194 °C
158 to 160 °C
220 to 225 °C
296 to 300 °C (dec.)
99 to 104 °C

Could you report melting point for every entry in the following list?
1. CCOC(=O)Cc1coc2c(OC)ccc(C(=O)Cc3c(Cl)cccc3Cl)c12
2. COc1ccc(C(=O)Cc2ccncc2)c2c1OCCCO2.Cl
3. COc1ccc(/C=C/c2c(Cl)cncc2Cl)c2c1OCC2C (racemic)
4. COc1ccc(C(=O)Nc2c(F)cccc2F)c2c(CC(=O)OCc3ccccc3)coc12

Output:
["153 to 154 °C", "205 to 208 °C", "117 to 118 °C", "223 to 224 °C"]
